Sourced from patent US8604200B2

IC50 for assorted compounds
target: NK2 (Homo sapiens); test: Signal transduction (ST), intracellular Ca++ FLIPR, NK2; assay type: cell-based; details: antagonist response, Ca++ transient peak, read-out: NK2 pIC50 (converted)
Sequence (P21452 whole entry): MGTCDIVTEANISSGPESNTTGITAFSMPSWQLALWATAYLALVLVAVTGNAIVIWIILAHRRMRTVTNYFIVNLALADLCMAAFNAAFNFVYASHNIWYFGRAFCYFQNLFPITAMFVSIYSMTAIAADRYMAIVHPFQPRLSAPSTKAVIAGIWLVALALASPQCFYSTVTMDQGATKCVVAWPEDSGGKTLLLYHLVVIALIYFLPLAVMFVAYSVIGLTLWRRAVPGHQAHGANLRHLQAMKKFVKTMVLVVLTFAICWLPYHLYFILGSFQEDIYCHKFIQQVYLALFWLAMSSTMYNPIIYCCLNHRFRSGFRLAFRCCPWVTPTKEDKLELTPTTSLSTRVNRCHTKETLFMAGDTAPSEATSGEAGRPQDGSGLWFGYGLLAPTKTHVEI
Could you give me the number in µM? Just the number is fine.

Some solved cases for reference:
compound: O=C(c1cc(C(F)(F)F)cc(C(F)(F)F)c1)N1CCC(N2CCC3(CCCN3C(=O)C3CC3)C2)CC1Cc1ccccc1 (centres unmarked)
IC50 / µM: 3.98
//
compound: O=C(c1cc(C(F)(F)F)cc(C(F)(F)F)c1)N1CC[C@@H](N2CCC3(CCCN3C(=O)c3cnccn3)C2)C[C@H]1Cc1ccccc1 (some centres unmarked)
IC50 / µM: 3.98
//
compound: O=C(c1ccoc1)N1CCC2(CCN([C@H]3CCN(C(=O)c4cc(C(F)(F)F)cc(C(F)(F)F)c4)[C@H](Cc4ccccc4)C3)C2)C1 (some centres unmarked)
IC50 / µM: 5.01
//
compound: O=C(C1CCOC1)N1CCC2(CCN([C@H]3CCN(C(=O)c4cc(C(F)(F)F)cc(C(F)(F)F)c4)[C@H](Cc4ccccc4)C3)C2)C1 (some centres unmarked)
IC50 / µM: 2.51
//
compound: CC(C)(C)C(=O)N1CCC2(CCN([C@H]3CCN(C(=O)c4cc(C(F)(F)F)cc(C(F)(F)F)c4)[C@H](Cc4ccccc4)C3)C2)C1 (some centres unmarked)
IC50 / µM: 3.16

Prompt: Quick check: IC50 on NK2 (Homo sapiens), item O=C(c1cc(C(F)(F)F)cc(C(F)(F)F)c1)N1CC[C@H](N2CCC3(CCCN3C(=O)c3ccccc3)C2)C[C@H]1Cc1ccccc1 (some centres unmarked) ?
Completion: 5.01

Prompt: Quick check: IC50 on NK2 (Homo sapiens), item O=C(c1cc(C(F)(F)F)cc(C(F)(F)F)c1)N1CCC(N2CCC3(CCCN3C(=O)C3CCOC3)C2)CC1Cc1ccccc1 (single isomer, unassigned) [Compound 1-6] ?
Completion: 1.58

Prompt: Quick check: IC50 on NK2 (Homo sapiens), item O=C(C1CC1)N1CCC2(CCN(C3CCN(C(=O)c4cc(C(F)(F)F)cc(C(F)(F)F)c4)C(Cc4ccccc4)C3)C2)C1 (centres unmarked) ?
Completion: 2.51

Prompt: Quick check: IC50 on NK2 (Homo sapiens), item O=C(c1cc(C(F)(F)F)cc(C(F)(F)F)c1)N1CC[C@@H](N2CCC3(CCCN3C(=O)c3cccs3)C2)C[C@H]1Cc1ccccc1 (some centres unmarked) ?
Completion: 6.31

Prompt: Quick check: IC50 on NK2 (Homo sapiens), item Cc1nnsc1C(=O)N1CCC2(CCN([C@H]3CCN(C(=O)c4cc(C(F)(F)F)cc(C(F)(F)F)c4)[C@H](Cc4ccccc4)C3)C2)C1 (some centres unmarked) ?
Completion: 6.31

Prompt: Quick check: IC50 on NK2 (Homo sapiens), item O=C(c1cc(C(F)(F)F)cc(C(F)(F)F)c1)N1CC[C@@H](N2CCC3(CCCN3C(=O)c3ccoc3)C2)C[C@H]1Cc1ccccc1 (some centres unmarked) ?
Completion: 6.31

* * *

biological target: NK1 (Homo sapiens, UniProt P25103); assay: Signal transduction (ST), intracellular Ca++ FLIPR, NK1; type: cell-based; conditions: antagonist response, Ca++ transient peak, read-out: NK1 pIC50 (converted)
Sequence (P25103 whole entry): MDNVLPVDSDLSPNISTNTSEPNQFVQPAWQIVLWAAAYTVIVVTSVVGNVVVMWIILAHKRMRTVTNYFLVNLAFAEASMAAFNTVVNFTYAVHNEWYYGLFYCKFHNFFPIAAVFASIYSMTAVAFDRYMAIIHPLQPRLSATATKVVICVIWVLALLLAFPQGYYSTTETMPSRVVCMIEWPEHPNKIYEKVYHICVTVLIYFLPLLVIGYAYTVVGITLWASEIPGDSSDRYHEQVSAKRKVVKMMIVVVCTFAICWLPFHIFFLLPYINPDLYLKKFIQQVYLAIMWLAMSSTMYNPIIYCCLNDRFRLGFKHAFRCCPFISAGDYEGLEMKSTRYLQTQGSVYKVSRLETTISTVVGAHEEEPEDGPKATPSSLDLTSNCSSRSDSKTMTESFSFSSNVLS
IC50 for assorted compounds
Could you give me the number in nM? Just the number is fine.

compound: O=C(c1ccccc1)N1CCC2(CCN([C@H]3CCN(C(=O)c4cc(C(F)(F)F)cc(C(F)(F)F)c4)[C@H](Cc4ccccc4)C3)C2)C1 (stereo partly drawn)
measured.attribute: IC50
display.unit: nM
readout.number: 126

Prompt: Given O=C(c1cc(C(F)(F)F)cc(C(F)(F)F)c1)N1CC[C@@H](N2CCC3(CCCN3C(=O)c3cccs3)C2)C[C@H]1Cc1ccccc1 (stereo partly drawn) , state its recorded IC50.
Completion: 50.1

Prompt: Given O=C(C1CC1)N1CCC2(CCN(C3CCN(C(=O)c4cc(C(F)(F)F)cc(C(F)(F)F)c4)C(Cc4ccccc4)C3)C2)C1 (stereo not drawn) , state its recorded IC50.
Completion: 100

Prompt: Given O=C(c1cc(C(F)(F)F)cc(C(F)(F)F)c1)N1CCC(N2CCC3(CCCN3C(=O)C3CCOC3)C2)CC1Cc1ccccc1 (single isomer, unassigned) [Compound 1-6] , state its recorded IC50.
Completion: 63.1

Prompt: Given O=C(c1cccs1)N1CCC2(CCN([C@H]3CCN(C(=O)c4cc(C(F)(F)F)cc(C(F)(F)F)c4)[C@H](Cc4ccccc4)C3)C2)C1 (stereo partly drawn) , state its recorded IC50.
Completion: 158

Prompt: Given O=C(c1cc(C(F)(F)F)cc(C(F)(F)F)c1)N1CCC(N2CCC3(CCCN3C(=O)C3CC3)C2)CC1Cc1ccccc1 (stereo not drawn) , state its recorded IC50.
Completion: 251

Prompt: Given O=C(c1cnccn1)N1CCC2(CCN([C@H]3CCN(C(=O)c4cc(C(F)(F)F)cc(C(F)(F)F)c4)[C@H](Cc4ccccc4)C3)C2)C1 (stereo partly drawn) , state its recorded IC50.
Completion: 251

* * *

target: NK2 (Homo sapiens); assay: Signal transduction (ST), intracellular Ca++ FLIPR, NK2; type: cell-based; settings: antagonist response, Ca++ transient peak, read-out: NK2 pIC50 (converted)
measured.attribute: IC50 (µM)
Could you give me the number in µM? Just the number is fine.

compound: O=C(c1cc(C(F)(F)F)cc(C(F)(F)F)c1)N1CC[C@H](N2CCC3(CCCN3C(=O)c3ccoc3)C2)C[C@H]1Cc1ccccc1 (stereo partly drawn)
display.unit: µM
readout.number: 3.16

Prompt: Given O=C(c1cnccn1)N1CCC2(CCN([C@H]3CCN(C(=O)c4cc(C(F)(F)F)cc(C(F)(F)F)c4)[C@H](Cc4ccccc4)C3)C2)C1 (stereo partly drawn) , state its recorded IC50.
Completion: 5.01

Prompt: Given O=C(c1ccccc1)N1CCC2(CCN([C@H]3CCN(C(=O)c4cc(C(F)(F)F)cc(C(F)(F)F)c4)[C@H](Cc4ccccc4)C3)C2)C1 (stereo partly drawn) , state its recorded IC50.
Completion: 5.01

Prompt: Given O=C(c1cccs1)N1CCC2(CCN([C@H]3CCN(C(=O)c4cc(C(F)(F)F)cc(C(F)(F)F)c4)[C@H](Cc4ccccc4)C3)C2)C1 (stereo partly drawn) , state its recorded IC50.
Completion: 6.31

Prompt: Given O=C(c1cc(C(F)(F)F)cc(C(F)(F)F)c1)N1CCC(N2CCC3(CCCN3C(=O)C3CCOC3)C2)CC1Cc1ccccc1 (single isomer, unassigned) [Compound 1-5] , state its recorded IC50.
Completion: 6.31

* * *

molecular target: NK3 (Homo sapiens); assay: Signal transduction (ST), intracellular Ca++ FLIPR, NK3; assay type: cell-based; conditions: antagonist response, Ca++ transient peak, read-out: NK3 pIC50 (converted)
Sequence (P29371 whole entry): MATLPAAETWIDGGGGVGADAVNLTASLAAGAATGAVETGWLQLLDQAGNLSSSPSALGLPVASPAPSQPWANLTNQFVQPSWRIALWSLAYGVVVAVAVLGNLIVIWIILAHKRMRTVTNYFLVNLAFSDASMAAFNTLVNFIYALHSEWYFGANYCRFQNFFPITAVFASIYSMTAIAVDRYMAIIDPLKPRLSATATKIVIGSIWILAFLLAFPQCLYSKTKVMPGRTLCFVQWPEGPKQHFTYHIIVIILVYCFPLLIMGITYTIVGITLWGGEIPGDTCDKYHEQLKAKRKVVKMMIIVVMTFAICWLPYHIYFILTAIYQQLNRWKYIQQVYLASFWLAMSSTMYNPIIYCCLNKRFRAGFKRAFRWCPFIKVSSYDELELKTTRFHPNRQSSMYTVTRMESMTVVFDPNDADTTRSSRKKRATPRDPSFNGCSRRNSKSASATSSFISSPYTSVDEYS
measured.attribute: IC50 (µM)
Could you give me the number in µM? Just the number is fine.

Some solved cases for reference:
compound: Cc1nnsc1C(=O)N1CCC2(CCN([C@H]3CCN(C(=O)c4cc(C(F)(F)F)cc(C(F)(F)F)c4)[C@H](Cc4ccccc4)C3)C2)C1 (stereo partly drawn)
assay.system: NK3 (Homo sapiens)
IC50 (µM): 3.98
--
compound: O=C(C1CCOC1)N1CCC2(CCN([C@H]3CCN(C(=O)c4cc(C(F)(F)F)cc(C(F)(F)F)c4)[C@H](Cc4ccccc4)C3)C2)C1 (stereo partly drawn)
assay.system: NK3 (Homo sapiens)
IC50 (µM): 2

Prompt: Given O=C(c1cccs1)N1CCC2(CCN([C@H]3CCN(C(=O)c4cc(C(F)(F)F)cc(C(F)(F)F)c4)[C@H](Cc4ccccc4)C3)C2)C1 (stereo partly drawn) , state its recorded IC50.
Completion: 2.51

Prompt: Given O=C(c1ccccc1)N1CCC2(CCN([C@H]3CCN(C(=O)c4cc(C(F)(F)F)cc(C(F)(F)F)c4)[C@H](Cc4ccccc4)C3)C2)C1 (stereo partly drawn) , state its recorded IC50.
Completion: 3.98

Prompt: Given CC(C)(C)C(=O)N1CCC2(CCN([C@H]3CCN(C(=O)c4cc(C(F)(F)F)cc(C(F)(F)F)c4)[C@H](Cc4ccccc4)C3)C2)C1 (stereo partly drawn) , state its recorded IC50.
Completion: 6.31

Prompt: Given O=C(c1ccoc1)N1CCC2(CCN([C@H]3CCN(C(=O)c4cc(C(F)(F)F)cc(C(F)(F)F)c4)[C@H](Cc4ccccc4)C3)C2)C1 (stereo partly drawn) , state its recorded IC50.
Completion: 3.16

* * *

target: NK1 (Homo sapiens); assay: Signal transduction (ST), intracellular Ca++ FLIPR, NK1; assay type: cell-based; conditions: antagonist response, Ca++ transient peak, read-out: NK1 pIC50 (converted)
IC50 for assorted molecules
Could you give me the number in nM? Just the number is fine.

Prompt: Given O=C(c1cc(C(F)(F)F)cc(C(F)(F)F)c1)N1CCC(N2CCC3(CCCN3Cc3ccccc3)C2)CC1Cc1ccccc1 (stereo not drawn) , state its recorded IC50.
Completion: 631

Prompt: Given O=C(c1cc(C(F)(F)F)cc(C(F)(F)F)c1)N1CC[C@H](N2CCC3(CCCN3C(=O)c3ccccc3)C2)C[C@H]1Cc1ccccc1 (stereo partly drawn) , state its recorded IC50.
Completion: 200

Prompt: Given O=C(c1ccoc1)N1CCC2(CCN([C@H]3CCN(C(=O)c4cc(C(F)(F)F)cc(C(F)(F)F)c4)[C@H](Cc4ccccc4)C3)C2)C1 (stereo partly drawn) , state its recorded IC50.
Completion: 50.1

Prompt: Given O=C(c1cc(C(F)(F)F)cc(C(F)(F)F)c1)N1CC[C@H](N2CCC3(CCCN3C(=O)c3ccoc3)C2)C[C@H]1Cc1ccccc1 (stereo partly drawn) , state its recorded IC50.
Completion: 100

Prompt: Given O=C(c1cc(C(F)(F)F)cc(C(F)(F)F)c1)N1CCC(N2CCC3(CCCN3C(=O)C3CCOC3)C2)CC1Cc1ccccc1 (single isomer, unassigned) [Compound 1-5] , state its recorded IC50.
Completion: 50.1

Prompt: Given O=C(C1CCOC1)N1CCC2(CCN([C@H]3CCN(C(=O)c4cc(C(F)(F)F)cc(C(F)(F)F)c4)[C@H](Cc4ccccc4)C3)C2)C1 (stereo partly drawn) , state its recorded IC50.
Completion: 39.8
